Where do these numbers come from? They come from PubChem BioAssay (NCI).

System: OVCAR-8 ovarian
method-description: NCI-60 one-dose screen, 48 h
settings: 10 µM unless noted
This is part of a sample that, as a whole, favours compounds with a hit. Of some 83,000 tested, about 20% had one in any assay. The source made the active and inactive calls. The calls were made as follows: active = growth percent below 10; inactive = the rest.
Outcome codes: t (active), f (inactive)

[[record]]
compound = "C[C@@H]1COCCN1c1cc(C2([S@](C)(=N)=O)CC2)nc(-c2ccnc3[nH]ccc23)n1"
class = "f"

[[record]]
compound = "C=CCn1c(=O)c2cnc(Nc3ccc(N4CCN(C)CC4)cc3)nc2n1-c1cccc(C(C)(C)O)n1"
class = "t"

[[record]]
compound = "COc1ccc(Cc2cc(-c3ccccc3C)n[nH]c2=O)cc1"
class = "f"

[[record]]
compound = "C[C@H](NC(=O)c1c(N)nn2cccnc12)c1cc2cccc(C#Cc3cnn(C)c3)c2c(=O)n1-c1ccccc1"
class = "f"

[[record]]
compound = "CSC1=C(N)C(=O)c2[nH]cc(CO)c2C1=N"
class = "t"

[[record]]
compound = "CNc1ncc2cc(-c3cc(NC(=O)NCCC(C)(C)C)c(F)cc3C)c(C)nc2n1"
class = "f"

[[record]]
compound = "C=CC(=O)Nc1cc(Nc2nccc(-c3cn(C)c4ccccc34)n2)c(OC)cc1N(C)CCN(C)C"
class = "t"

[[record]]
compound = "CCCCCCCCCNCCCCCCCCC"
class = "f"

[[record]]
compound = "Nc1cc(C(F)(F)F)c(-c2cc(N3CCOCC3)nc(N3CCOCC3)n2)cn1"
class = "t"

[[record]]
compound = "Oc1ccc(C(c2ccc(O)cc2)C(Cl)(Cl)Cl)cc1"
class = "f"

[[record]]
compound = "COc1ccc2c(OCc3nnc4ccc(-c5ccccc5)nn34)ccnc2c1"
class = "f"

[[record]]
compound = "O=C1CSC(c2c(F)cccc2Cl)N1NC(=O)C(O)(c1ccccc1)c1ccccc1 (stereo not given)"
class = "f"

[[record]]
compound = "C=CC(=O)Nc1cccc(Oc2nc(Nc3ccc(N4CCN(C)CC4)cc3)nc3ccsc23)c1"
class = "t"

[[record]]
compound = "CCNC(=O)Nc1nc2ccc(Oc3ccnc(C(=O)NC)c3)cc2s1"
class = "f"

[[record]]
compound = "CNC(=O)c1nn(C)c2c1C(C)(C)Cc1cnc(Nc3ccc(N4CCN(C)CC4)cc3)nc1-2"
class = "t"

[[record]]
compound = "CNC(=O)c1cc(Oc2ccc3nc(NC(=O)Nc4ccc(Cl)c(C(F)(F)F)c4)sc3c2)ccn1"
class = "t"

[[record]]
compound = "CCN1CCN(c2cc(C)nc(N(CCCNc3ccnc4cc(Cl)ccc34)Cc3cccs3)n2)CC1"
class = "f"

[[record]]
compound = "Oc1ccc(/C=N/Nc2nnc(N/N=C/c3ccc(O)cc3O)c3ccccc23)c(O)c1"
class = "t"

[[record]]
compound = "CC[C@@H]1C(=O)N(C)c2cnc(Nc3ccc(C(=O)NC4CCN(C)CC4)cc3OC)nc2N1C1CCCC1"
class = "f"

[[record]]
compound = "CN(c1ncccc1CNc1nc(Nc2ccc3c(c2)CC(=O)N3)ncc1C(F)(F)F)S(C)(=O)=O"
class = "t"

